system: THRa:RXRa (NR concentration 90 nM, RXRa partner concentration 90 nM); assay: PBM binding z-score (relative to random genomic background probes); higher = stronger binding; sequences stand for … in GC…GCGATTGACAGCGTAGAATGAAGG
Listing: PBM binding z-score of selected sequences
// keep it numeric: no unit symbol after the value

// worked examples, PBM binding z-score included
sequence_entry: ACTAGTTGGTCAGCTGAGGTGACACACAATTCGG
measured_result: 4.41
--
sequence_entry: CCTTACGGGTCAAGGTGATAGCACGGGTGGTACG
measured_result: 2.94
--
sequence_entry: GCAGACAGGTGAAACTCAGGTAACTCAGGGTGGC
measured_result: 2.7
--
sequence_entry: CAGCCTAGGTCAGGGTCAGTATAGGAGGAACGTT
measured_result: 3.39
--
sequence_entry: GGAACGAGGGCAGTCGAGTTGATAGCATGGCGAT
measured_result: 1.52
--
sequence_entry: TGAATGAGGTTATAAGATTAGGGAACGTTGCAAA
measured_result: 1.68
--
sequence_entry: TCTTGTAGTTCAAAGGTTAAGAAAGCCGAAGCCT
measured_result: 2.53
--
sequence_entry: GCACGGAGGACAAGGTCAGAGCTTTGTCCGTAGA
measured_result: 2.89
--
sequence_entry: TCTTGTCGATCAAAGGTTAAGAAAGCCGAAGCCT
measured_result: 1.33
--
sequence_entry: TCGAGTAGGTTAGTCGGGGCATTCAACCAACATA
measured_result: 1.28

# sequence ATATGTAGGTTAAGGGACATTCAGGTTGGTTCGC ; its PBM binding z-score = 1.14

The reported value for GCTAGTTGGTCAGTAAAAGTTCACACACCGGTCG in terms of PBM binding z-score is 1.46

Form: sequence = ACCGACAGGTGAGTGAAGGTAACTCAGCTGGACG ; PBM binding z-score = 1.56

Consider TCTAGTTGGTCACGGAGGTCACACTCGACGGGTA . Its measured PBM binding z-score is 3.59

Memo: TCGAGTAGGTTAGTCCGGGCATTCAGCCAACATA , reported PBM binding z-score: 0.527

So for CCTCGGAGGACAACAGGAGGTCACAGCTGCCAGA , the logged PBM binding z-score turned out to be 3.81

// PBM binding z-score value for TCTTGTAGATCAATAGAGGTTAAGAACGTGCGCT : 2.33

PBM binding z-score reported for this sequence CATACAGGGTCTGCTAGGCCAGAGTAGGGACGGC : 0.13

PBM binding z-score reported for this sequence CGTACAAGGTCAATGCTAGGTCAGTGAAAGCATT : 4.45

Kindly note the recorded PBM binding z-score for CCTTGCAGGCCAATCTGGGTCACTCAAGGCTTGA , which is 3.61

ACAGACAGGTGAGTGAAGGTAACTCATCTGGACG yielded PBM binding z-score of 1.57

// sample ATCGAAAGGTCGTGAGGCGAGTATACAGAAAGGC , its PBM binding z-score was 2.49

So for TAGCCTAGCTCATGGGCCAGTATACCACGCGAAC , the logged PBM binding z-score turned out to be -0.643

For this sequence ( ACAGACAGGTGTGTGAAGGTAACTCAGCTGGACG ), measured PBM binding z-score is -0.0622

Per the record, TCAGACAGGTGAAGGTCACTCAGGTACGCAGTCG has PBM binding z-score of 3.79

# PBM binding z-score of TCATATAGGTAATACAGGTGAACGTCGGCATCTA = 1.18

###

test system: PPARg:RXRa 270nM:90nM, anti-RXR (NR concentration 270 nM, RXRa partner concentration 90 nM); assay: PBM binding z-score (relative to random genomic background probes); higher = stronger binding; sequences stand for … in GC…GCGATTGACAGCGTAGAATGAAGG
Assign classes using reported PBM binding z-score values and the ranges low interval: < 1; middle interval: ≥ 1 and < 3; high interval: ≥ 3, please.

sequence_entry: TCTATTAGTTGATTAGTGCAACCGAAACAGCGGA
label_value: middle interval

sequence_entry: GTACCAAGGGGAATAGGTCGTTGATGAGTAGGCG
label_value: middle interval

sequence_entry: CCTACTGGGCCATCAGCTCATTGATATCAACGTT
label_value: low interval

sequence_entry: AGTCAAAGTTCACTAGGTACCGTAAGATTCAGCT
label_value: high interval

sequence_entry: TGAATGAGGATATAAGATCAGGGAACGTTGCAAA
label_value: low interval

Ask: Would you mind sorting CTACCAAGGTGAAAAAGGTCGTTGATTACTATTC into the appropriate category?
Reply: middle interval

Ask: Place this sequence in its band: TCTCGGAGGACACGAAAGGTCAGATCTCGACATC
Reply: middle interval

Ask: # classify by PBM binding z-score band: TCTTGTAGATCGAGCAGGTTAAGAAAGCCTGAGT
Reply: middle interval

Ask: Category of CCTATTAGTTGACCATAAGGGGAACCGAAGCTCG :
Reply: low interval

Ask: For this sequence, which bin applies? GCTCGGAGTACAAGGTCAGAGCTTTGTCCGTAGA
Reply: middle interval

Ask: Quick check: band for TCTAGTTGGTCAAAGTTCACACACTCGAAATGCG
Reply: high interval

###

system: PPARa:RXRa (NR concentration 270 nM, RXRa partner concentration 90 nM); assay: PBM binding z-score (relative to random genomic background probes); higher = stronger binding; sequences stand for … in GC…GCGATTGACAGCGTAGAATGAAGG
We begin with a simple list: items and their reported PBM binding z-score.
# answer = number (no unit)

Sample answers from the record:
sequence_entry: CCTTACGGGTCAAGGATATAGCACGGGTGGTACG
target_or_test_system: PPARa:RXRa (NR concentration 270 nM, RXRa partner concentration 90 nM)
PBM binding z-score: 4.52
--
sequence_entry: TCACCAAGGTGAAGGTCGTTGATCCCTCTGTAGA
target_or_test_system: PPARa:RXRa (NR concentration 270 nM, RXRa partner concentration 90 nM)
PBM binding z-score: 2.71
--
sequence_entry: TCATATAGGTAATACAGGTGAGAGTCGGCATCTA
target_or_test_system: PPARa:RXRa (NR concentration 270 nM, RXRa partner concentration 90 nM)
PBM binding z-score: 1.63
--
sequence_entry: TCATATAGGTAAATGCTAGATGAAAGTCCGATCT
target_or_test_system: PPARa:RXRa (NR concentration 270 nM, RXRa partner concentration 90 nM)
PBM binding z-score: 1.06
--
sequence_entry: CTACCAAGGTGAACAAGGTCGTTTATTACTATTC
target_or_test_system: PPARa:RXRa (NR concentration 270 nM, RXRa partner concentration 90 nM)
PBM binding z-score: 2.46

Briefly, PBM binding z-score measured for AGTCAACGTTCATCTAGGTAACGTAAGATATGCT : 0.365

// recorded PBM binding z-score for ACTAGCAGGCCAAGTTTGGGTCACGCAAACAAAG : 2.27

Measured PBM binding z-score, ATATGTAGGTTATCGGCTCATTCAGTTTGCGCAT : 2.6

Reported PBM binding z-score of CCTAGCAGGCCTGGGTCACTCAAGCATTTCGCTT : 1.34

Short answer for ATCGAAAGGTCGAGGTGCGTATAGAGAAAGGGAA : PBM binding z-score was 4.37

###

system: VDR homodimer (NR concentration 270 nM); experiment: PBM binding z-score (relative to random genomic background probes); higher = stronger binding; sequences stand for … in GC…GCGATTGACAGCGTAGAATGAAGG
parameter_measured: PBM binding z-score
Write no unit; give the number alone.

Example results:
sequence_entry: CTCGAAAGGTCGGTGGAGGTGAGTATACGGATAA
PBM binding z-score: 0.546
//
sequence_entry: AGAACGAGGGCAATGCGTTGATAGCACGGGTGGC
PBM binding z-score: 1.17
//
sequence_entry: GCTTGAAGATCAAGGTTAAGAAAGACTAAGCTAA
PBM binding z-score: -0.116
//
sequence_entry: CGTTACGGGTCACGAGGTTATAGCACGACGAGCG
PBM binding z-score: 1.96
//
sequence_entry: CAAACCAGGTCAAGGTCAAAGTCGGTTTGTGCCA
PBM binding z-score: 4.97
//
sequence_entry: GGAACGAGGGCAAAGTTGATAGCTTCTGTCGACG
PBM binding z-score: 1.22
//
sequence_entry: CAAGACAGGTGAGAAGGTAACTCAGCCTCGATTA
PBM binding z-score: -0.249
//
sequence_entry: GCATATAGGTAATACGAGGTGAAAGTCCGATTGT
PBM binding z-score: -0.0522

Record summary for CGTCCAAGGTCAGAGAGGTCAGTGAGTGCCGAGT : reported PBM binding z-score = 6.07
